# OD490 values, Mean per record follows
# System: L929 cell line
# experiment-summary: Cytotoxicity MTS assay, L929 cell line
# Format: cell-based
# reported-conditions: L929 cell line, 1μM, first assay
test-readout: OD490 values, Mean

> print(dat)
                                   compound  experimental.target  quantitative.readout
1  CCOC(=O)c1c(C2NC(=O)NC(C)=C2C(=O)Nc2ccccc2)[nH]c(C(=O)OC)c1C (stereo not drawn)       L929 cell line                1.1453
2  CCOC(=O)c1[nH]c(C2NC(=O)NC(C)=C2C(=O)Nc2ccc(Cl)cc2)c(C(=O)OCC)c1C (stereo not drawn)       L929 cell line                1.2921
3  CCOc1ccccc1C1NC(=S)NC(C)=C1C(=O)Nc1ccc(Cl)cc1 (stereo not drawn)       L929 cell line                1.2882
4  CCOC(=O)c1[nH]c(C2NC(=O)NC(C)=C2C(=O)Nc2ccccc2OC)c(C(=O)OC)c1C (stereo not drawn)       L929 cell line                1.3230
5  CCOC(=O)c1c(C2NC(=O)NC(C)=C2C(=O)Nc2ccccc2OC)[nH]c(C(=O)OC)c1C (stereo not drawn) [D1]       L929 cell line                1.3549
6  CCOC(=O)c1[nH]c(C2NC(=O)NC(C)=C2C(=O)Nc2ccccc2C)c(C(=O)OC)c1C (stereo not drawn)       L929 cell line                1.1804
7  CCOC(=O)c1c(C2NC(=O)NC(C)=C2C(=O)Nc2ccccc2C)[nH]c(C(=O)OC)c1C (stereo not drawn) [D2]       L929 cell line                1.4199
8  COC(=O)c1[nH]c(C2NC(=S)NC(C)=C2C(=O)c2ccccc2)c(C(=O)OC)c1C (stereo not drawn)       L929 cell line                1.2798
9  CCOC(=O)c1[nH]c(C2NC(=S)NC(C)=C2C(=O)OC)c(C(=O)OCC)c1C (stereo not drawn)       L929 cell line                1.1860
